Test system: giant foxtail (Setaria faberii)
assay-comment: Test D pre-/postemergence plant response
Assay type: in vivo
details: Postemergence, 62 g ai/ha; scale 0 to 100, 0 no effect, 100 complete control
property-label: Plant response rating, Foxtail, Giant
Answers are plain numbers.

Consider the following illustrative entries.
molecule: Fc1cccc(Oc2ncc(Br)cn2)c1-c1cc(C(F)F)on1
Plant response rating, Foxtail, Giant: 10
--
molecule: Fc1cccc(Oc2ncc(Cl)cn2)c1-c1cc(C(F)(F)F)no1
Plant response rating, Foxtail, Giant: 20
--
molecule: FC(F)(F)c1cc(-c2c(Cl)cccc2Oc2ncc(Cl)cn2)no1
Plant response rating, Foxtail, Giant: 25

Here are 7 molecules. What values of Plant response rating, Foxtail, Giant were reported for them?
1. Cc1cc(-c2ccccc2Oc2ncc(Cl)cn2)on1
2. FC(F)c1cc(-c2ccccc2Oc2ncc(Br)cn2)on1
3. Fc1ccc(Oc2ncc(Cl)cn2)c(-c2cc(C(F)F)on2)c1Cl
4. FC(F)c1cc(-c2c(Cl)cccc2Oc2ncc(Cl)cn2)no1
5. Clc1cnc(Oc2ccccc2-c2ccon2)nc1
6. FCc1cc(-c2c(F)cccc2Oc2ncc(Cl)cn2)no1
7. FC(Cl)(Cl)c1cc(-c2ccccc2Oc2ncc(Cl)cn2)no1

**A:**
15
15
10
40
5
20
15
